System: Aspergillus brasiliensis
method_description: Antifungal activity against Aspergillus brasiliensis ATCC 16404 assessed as growth inhibition by M7-A6 method
Assay type: functional
Counter-ions that a name gives are not always drawn.
quantity_measured: MIC (mM)
Value expressed in mM; do not type the unit.

Ask: Return reported MIC; argument: CN(CCCCCN(C)c1ccc(C(=N)N)cc1)c1ccc(C(=N)N)cc1
Result: 9.78

Ask: Return reported MIC; argument: N=C(N)c1ccc(NCCOCCNc2ccc(C(=N)N)cc2)cc1
Result: 5.92

Ask: Return reported MIC; argument: N=C(N)c1ccc(OCCN(CCOc2ccc(C(=N)N)cc2)S(=O)(=O)c2ccccc2)cc1
Result: 8.22

Ask: Return reported MIC; argument: N=C(N)c1ccc(OCCCCCOc2ccc(C(=N)N)cc2)cc1 [PENTAMIDINE HYDROCHLORIDE]
Result: 0.022

Ask: Return reported MIC; argument: Cl.N=C(NC1CCCCC1)c1ccc(OCCSCCOc2ccc(C(=N)NC3CCCCC3)cc2)cc1
Result: 0.0032

Ask: Return reported MIC; argument: COc1cc(C(=N)N)cc(OC)c1OCCCCCOc1c(OC)cc(C(=N)N)cc1OC
Result: 8.92

* * *

System: Candida parapsilosis
method_description: Antifungal activity against Candida parapsilosis ATCC 22019 assessed as growth inhibition by M7-A6 method
Format: functional
condition_parameters: Lodderomyces parapsilosis
Structures can show the parent of a compound that is named as a salt.
quantity_measured: log10 of MIC (log10 of the value in µM)
// stored as log10 of MIC expressed in µM

>>> df
                                   compound  result
0  CCCCNC(=N)c1ccc(OCCSCCOc2ccc(C(=N)NCCCC)cc2)cc1.Cl    0.56
1   N=C(N)c1ccc(OCCSCCOc2ccc(C(=N)N)cc2)cc1    1.36
2  COc1cc(C(=N)N)ccc1OCCN(CCOc1ccc(C(=N)N)cc1OC)S(=O)(=O)c1ccc(NC(C)=O)cc1    2.56
3  CN(CCOc1ccc(C(=N)N)cc1)CCOc1ccc(C(=N)N)cc1    4.03
4  COc1cc(C(=N)N)ccc1OCCOCCOc1ccc(C(=N)N)cc1OC    3.72
5  Cl.c1cc(C2=NCCN2)ccc1OCCSCCOc1ccc(C2=NCCN2)cc1    1.46
6  N=C(N)c1ccc(OCCCCCOc2ccc(C(=N)N)cc2)cc1 [PENTAMIDINE HYDROCHLORIDE]    0.64
7  Cl.N=C(NC1CCCCC1)c1ccc(OCCSCCOc2ccc(C(=N)NC3CCCCC3)cc2)cc1    0.51

Next item in the queue.
Ask: Return reported log10 of MIC; argument: COc1cc(C(=N)N)cc(OC)c1OCCCCCOc1c(OC)cc(C(=N)N)cc1OC
Result: 2.95

* * *

method_description: Cytotoxicity against human HeLa cells assessed as cell viability at 10 ug/ml after 48 hrs by MTT assay
Type: cell-based
condition_parameters: read-out: Activity
Parameter: viability at 48 h, 10 ug/ml. Scope: all listed entries.
Value expressed in %; do not type the unit.

                            compound_string  result
0  Cl.c1cc(C2=NCCN2)ccc1OCCSCCOc1ccc(C2=NCCN2)cc1    76.9
1  Cl.N=C(N)c1ccc(SCCOCCSc2ccc(C(=N)N)cc2)cc1    76.2
2  CCCCNC(=N)c1ccc(OCCSCCOc2ccc(C(=N)NCCCC)cc2)cc1.Cl    91.8

Next item in the queue.
Ask: Return reported viability at 48 h, 10 ug/ml; argument: Cl.N=C(NC1CCCCC1)c1ccc(OCCSCCOc2ccc(C(=N)NC3CCCCC3)cc2)cc1
Result: 95.3

* * *

Parameter: MIC. Scope: all listed entries.
Tested on: Pseudomonas aeruginosa
method_description: Antibacterial activity against Pseudomonas aeruginosa ATCC 15442 assessed as growth inhibition by M7-A6 method
Type: functional
Counter-ions that a name gives are not always drawn.

Reference set, count: 10
>>> print(df.to_string())
                                   compound          assayed_target     result
0   N=C(N)c1ccc(OCCSCCOc2ccc(C(=N)N)cc2)cc1  Pseudomonas aeruginosa    2.32 mM
1  N=C(N)c1ccc(OCCN(CCOc2ccc(C(=N)N)cc2)S(=O)(=O)c2ccccc2)cc1  Pseudomonas aeruginosa    1.64 mM
2  COc1cc(C(=N)N)cc(OC)c1OCCN(CCOc1c(OC)cc(C(=N)N)cc1OC)S(=O)(=O)c1ccc(N)cc1  Pseudomonas aeruginosa    6.41 mM
3  COc1cc(C(=N)N)cc(OC)c1OCCOCCOc1c(OC)cc(C(=N)N)cc1OC  Pseudomonas aeruginosa    > 17 mM
4  CCCCNC(=N)c1ccc(OCCSCCOc2ccc(C(=N)NCCCC)cc2)cc1.Cl  Pseudomonas aeruginosa  > 1.81 mM
5   N=C(N)c1ccc(NCCOCCNc2ccc(C(=N)N)cc2)cc1  Pseudomonas aeruginosa  > 23.7 mM
6  Cl.N=C(NC1CCCCC1)c1ccc(OCCSCCOc2ccc(C(=N)NC3CCCCC3)cc2)cc1  Pseudomonas aeruginosa  > 1.63 mM
7  Cl.N=C(N)c1ccc(SCCOCCSc2ccc(C(=N)N)cc2)cc1  Pseudomonas aeruginosa    2.15 mM
8  COc1cc(C(=N)N)cc(OC)c1OCCN(CCOc1c(OC)cc(C(=N)N)cc1OC)S(=O)(=O)c1ccccc1  Pseudomonas aeruginosa    7.04 mM
9  COc1cc(C(=N)N)cc(OC)c1OCCCCCOc1c(OC)cc(C(=N)N)cc1OC  Pseudomonas aeruginosa    4.46 mM

Ask: Return reported MIC; argument: N=C(N)c1ccc(OCCCCCOc2ccc(C(=N)N)cc2)cc1 [PENTAMIDINE HYDROCHLORIDE]
Result: 1.67 mM

* * *

Tested on: Staphylococcus aureus
method_description: Antibacterial activity against penicillin, erythromycin, amikacin, clindamycin, ciprofloxacin, methicillin-resistant Staphylococcus aureus 572/12 assessed as growth inhibition by M7-A6 method
Type: functional
Counter-ions that a name gives are not always drawn.
Parameter: log10 MIC. Scope: all listed entries.
// stored as log10 of MIC expressed in µM

In [3]: df
Out[3]:
                                   compound  result
0  Cl.N=C(NC1CCCCC1)c1ccc(OCCSCCOc2ccc(C(=N)NC3CCCCC3)cc2)cc1    2.00
1   N=C(N)c1ccc(OCCSCCOc2ccc(C(=N)N)cc2)cc1    2.46
2  N=C(N)c1ccc(OCCCCCOc2ccc(C(=N)N)cc2)cc1 [PENTAMIDINE HYDROCHLORIDE]    2.75
3  Cl.c1cc(C2=NCCN2)ccc1OCCSCCOc1ccc(C2=NCCN2)cc1    3.29
4  Cl.N=C(N)c1ccc(SCCOCCSc2ccc(C(=N)N)cc2)cc1    2.43

Next item in the queue.
Ask: Return reported log10 MIC; argument: CCCCNC(=N)c1ccc(OCCSCCOc2ccc(C(=N)NCCCC)cc2)cc1.Cl
Result: 2.36

* * *

Tested on: HeLa
method_description: Cytotoxicity against human HeLa cells assessed as inhibition of cell viability after 72 hrs by MTT assay
Assay type: cell-based
quantity_measured: IC50

Reference set, count: 3
>>> df
                            compound_string  quantity_measured       result
0  Cl.c1cc(C2=NCCN2)ccc1OCCSCCOc1ccc(C2=NCCN2)cc1               IC50  > 100 µg/mL
1  CCCCNC(=N)c1ccc(OCCSCCOc2ccc(C(=N)NCCCC)cc2)cc1.Cl               IC50  > 100 µg/mL
2  Cl.N=C(N)c1ccc(SCCOCCSc2ccc(C(=N)N)cc2)cc1               IC50   < 50 µg/mL

Next item in the queue.
Ask: Return reported IC50; argument: Cl.N=C(NC1CCCCC1)c1ccc(OCCSCCOc2ccc(C(=N)NC3CCCCC3)cc2)cc1
Result: > 100 µg/mL

* * *

Tested on: Saccharomyces cerevisiae
method_description: Antifungal activity against Saccharomyces cerevisiae ATCC 9763 assessed as growth inhibition by M7-A6 method
Type: functional
Where a name gives a salt, the structure may show the parent alone.
# 1 = MIC below 300 µM (exclusive); -1 = MIC at/above 300 µM

These recorded examples may help you get a feel for the data.
>>> df
                                   molecule            assayed_target  class
0  COc1cc(C(=N)N)cc(OC)c1OCCN(CCOc1c(OC)cc(C(=N)N)cc1OC)S(=O)(=O)c1ccccc1  Saccharomyces cerevisiae     -1
1  CN(CCCCCN(C)c1ccc(C(=N)N)cc1)c1ccc(C(=N)N)cc1  Saccharomyces cerevisiae      1
2  Cl.N=C(NC1CCCCC1)c1ccc(OCCSCCOc2ccc(C(=N)NC3CCCCC3)cc2)cc1  Saccharomyces cerevisiae      1
3  COc1cc(C(=N)N)ccc1OCCN(CCOc1ccc(C(=N)N)cc1OC)S(=O)(=O)c1ccc(NC(C)=O)cc1  Saccharomyces cerevisiae     -1
4  COc1cc(C(=N)N)cc(OC)c1OCCCCCOc1c(OC)cc(C(=N)N)cc1OC  Saccharomyces cerevisiae     -1

Ask: Please check: MIC for Cl.c1cc(C2=NCCN2)ccc1OCCSCCOc1ccc(C2=NCCN2)cc1 , strictly under 300 µM or not?
Result: -1

Ask: Please check: MIC for COc1cc(C(=N)N)cc(OC)c1OCCN(CCOc1c(OC)cc(C(=N)N)cc1OC)S(=O)(=O)c1ccc(N)cc1 , strictly under 300 µM or not?
Result: -1

Ask: Please check: MIC for N=C(N)c1ccc(OCCCCCOc2ccc(C(=N)N)cc2)cc1 [PENTAMIDINE HYDROCHLORIDE] , strictly under 300 µM or not?
Result: 1

Ask: Please check: MIC for COc1cc(C(=N)N)ccc1OCCN(CCOc1ccc(C(=N)N)cc1OC)S(=O)(=O)c1ccccc1 , strictly under 300 µM or not?
Result: 1
